# Test system: OVCAR-5
# test-details: NCI tumour cell line growth inhibition, 48 h
Activity calls are given as the source filed them. Rule as the data show it: active = GI50 up to about 1.1 µM and inactive = higher.

{"compound": "Cc1cccc(CNc2[nH]cnc3nncc2-3)c1", "GI50": "40.4 µM (inactive)"}
{"compound": "c1ccc2c(c1)nc1ccccn12", "GI50": "> 100 µM (inactive)"}
{"compound": "O=C1C2C3C=C4c5ccccc5N(c5ccccc5)C4(C2C(=O)N1c1ccc(Cl)cc1)[C@H]1C(=O)N(c2ccc(Cl)cc2)C(=O)[C@@H]31 (stereo partly drawn)", "GI50": "> 100 µM (inactive)"}
{"compound": "CC(C)=CCc1c(O)cc(O)c2c1OC(c1ccc(O)cc1)C(O)C2=O (stereo not drawn)", "GI50": "28.2 µM (inactive)"}
{"compound": "CC1=NN(c2cccc(Cl)c2)C(=N/c2nc3ccccc3s2)/C1=C\\C=C\\c1ccccc1", "GI50": "46.5 µM (inactive)"}
{"compound": "Cn1c(=O)c2nc(COCc3nc4c(=O)n(C)c(=O)n(C)c4[nH]3)[nH]c2n(C)c1=O", "GI50": "> 100 µM (inactive)"}
{"compound": "Cc1nc2ccc(NCCN(C)C)c3c(=O)c4cc(O)ccc4n1c23", "GI50": "1.42 µM (inactive)"}
{"compound": "CC(=O)CCC#Cc1ccccc1C(=O)C(C)=[N+]=[N-]", "GI50": "> 100 µM (inactive)"}
{"compound": "C=C(COCO)C(C)=O", "GI50": "20.5 µM (inactive)"}
{"compound": "Cc1cccc2c1[nH]c1[nH]c(=O)[nH]c(=O)c12", "GI50": "> 100 µM (inactive)"}
{"compound": "O=C1OC(c2ccccc2)=N/C1=C\\c1cccc(F)c1", "GI50": "> 100 µM (inactive)"}
{"compound": "COC(=O)[C@]12CC[C@H]3CN(S(=O)(=O)c4ccc(C)cc4)[C@H]([C@H]31)[C@H](c1ccco1)N2S(=O)(=O)c1ccc(C)cc1", "GI50": "> 100 µM (inactive)"}
{"compound": "COc1cc(C=O)ccc1O", "GI50": "> 100 µM (inactive)"}
{"compound": "C=CC(O)(CBr)CCC(Br)C(=C)C (stereo not drawn)", "GI50": "> 10 µM (inactive)"}
{"compound": "CCOC12OC3=C(CC1CC1=C(CCC1=O)O2)C(=O)CC3 (stereo not drawn)", "GI50": "> 100 µM (inactive)"}
{"compound": "CCO/C=N/C1=C(C#N)C(c2ccc(OC)c(OC)c2)c2c(-c3ccccc3)nn(-c3ccccc3)c2O1 (stereo not drawn)", "GI50": "10.7 µM (inactive)"}
{"compound": "CCn1c(=O)c2nc(SC)sc2n(-c2ccccc2)c1=O", "GI50": "> 100 µM (inactive)"}
{"compound": "O=C(O)CNc1c2ccccc2nc2ccccc12", "GI50": "> 100 µM (inactive)"}
{"compound": "ClCc1ccc(C2OCCO2)cc1", "GI50": "> 48.9 µM (inactive)"}
{"compound": "COC1CCC(OS(C)(=O)=O)C(CO)O1 (stereo not drawn)", "GI50": "> 100 µM (inactive)"}
{"compound": "CCOC(=O)C1=C(C)NC(C)=C(C(=O)OCC)C1c1ccc(C)cc1", "GI50": "41.6 µM (inactive)"}
{"compound": "NCCNc1ccc(NCCN)c2c1C(=O)c1c(O)ccc(O)c1C2=O", "GI50": "0.971 µM (active)"}
{"compound": "O=C(/C=C/c1ccc(O)c(O)c1)NCCc1ccc(-c2ccccc2)cc1", "GI50": "87.7 µM (inactive)"}
{"compound": "O=C1Nc2ccc(Br)cc2C1=Nc1cccnc1", "GI50": "29.3 µM (inactive)"}
{"compound": "Nc1nc(N)nc(CCCCc2nc(N)nc(N)n2)n1", "GI50": "> 100 µM (inactive)"}
{"compound": "CC1=CC(C)C(C)N(CCNS(=O)(=O)c2ccc(C)cc2)c2ccccc21 (stereo not drawn)", "GI50": "18.7 µM (inactive)"}
{"compound": "Nc1nc(Cl)cc(NCC2(CO)CCC(CCc3ccccc3)C2)n1 (stereo not drawn)", "GI50": "14.5 µM (inactive)"}
{"compound": "CC1=C(C(=O)Nc2cccc3c2C(=O)NC3=O)CC(C(=O)Nc2cccc3c2C(=O)NC3=O)=C(C)N1", "GI50": "> 100 µM (inactive)"}
{"compound": "O=C(O)/C(O)=C\\C(=O)c1ccc(Br)cc1", "GI50": "> 100 µM (inactive)"}
{"compound": "C=CCc1[nH]c2c(OCc3ccccc3)cc(N(CC=C)C(C)=O)cc2c1C", "GI50": "14.1 µM (inactive)"}
{"compound": "CCOC(=O)[C-]([N+]#N)[Si](C)(C)C", "GI50": "> 100 µM (inactive)"}
{"compound": "O=C1Nc2ccccc2N=CC1NC(=O)C(c1ccccc1)c1ccccc1 (stereo not drawn)", "GI50": "> 100 µM (inactive)"}
{"compound": "CCOC(=O)C1(C#N)C(c2ccccc2)CC(O)(c2ccc([N+](=O)[O-])cc2)C(C(=O)c2ccc([N+](=O)[O-])cc2)C1c1ccccc1 (stereo not drawn)", "GI50": "> 100 µM (inactive)"}
{"compound": "O=C(N/C(=C\\c1ccc([N+](=O)[O-])cc1)c1nc2cc(Cl)ccc2[nH]1)c1ccccc1", "GI50": "11.3 µM (inactive)"}
{"compound": "COc1ccccc1/N=N/c1c(-c2ccccc2)nn(C(=O)CC(=O)Nc2cccc(C)c2)c1-c1ccccc1", "GI50": "36.3 µM (inactive)"}
{"compound": "COc1cc2c(c(OC)c1OC)-c1ccc(SC)c(=O)cc1[C@@H](NCc1ccc(C#N)cc1)CC2", "GI50": "0.00736 µM (active)"}
{"compound": "O=C(CCSC(CC(=O)c1ccc(Cl)cc1)c1ccc(Cl)cc1)Nc1ccc(Cl)cc1 (stereo not drawn)", "GI50": "16.4 µM (inactive)"}
{"compound": "C[N+](C)(C)CC(=O)N/N=C(\\CCC(=O)NCCc1ccccc1)CC(=O)c1ccccc1", "GI50": "> 100 µM (inactive)"}
{"compound": "COC(=O)c1cc(C)ccc1C1CN=NC12Cc1ccc(C)cc1C2=O (stereo not drawn)", "GI50": "> 100 µM (inactive)"}
{"compound": "COc1cc(C2C(Cl)C(=O)N2NC(=O)Cc2ccccc2)ccc1O (stereo not drawn)", "GI50": "> 100 µM (inactive)"}
{"compound": "COc1cc(CCc2cccnc2)cc(OC)c1OC", "GI50": "38.5 µM (inactive)"}
{"compound": "CCOC(=O)CC1=CSC2=NCCN12", "GI50": "> 100 µM (inactive)"}
{"compound": "COc1cc2c(cc1OC)C1=CCC(c3ccccc3)[N+]1(C)CC2 (stereo not drawn)", "GI50": "> 100 µM (inactive)"}
